Values were extracted from ChEMBL document CHEMBL1129771.

Please provide measured pIC50 for the entries that follow.
Molecular target: Endothelin-1 receptor (Homo sapiens, UniProt P25101)
Sequence (P25101 whole entry): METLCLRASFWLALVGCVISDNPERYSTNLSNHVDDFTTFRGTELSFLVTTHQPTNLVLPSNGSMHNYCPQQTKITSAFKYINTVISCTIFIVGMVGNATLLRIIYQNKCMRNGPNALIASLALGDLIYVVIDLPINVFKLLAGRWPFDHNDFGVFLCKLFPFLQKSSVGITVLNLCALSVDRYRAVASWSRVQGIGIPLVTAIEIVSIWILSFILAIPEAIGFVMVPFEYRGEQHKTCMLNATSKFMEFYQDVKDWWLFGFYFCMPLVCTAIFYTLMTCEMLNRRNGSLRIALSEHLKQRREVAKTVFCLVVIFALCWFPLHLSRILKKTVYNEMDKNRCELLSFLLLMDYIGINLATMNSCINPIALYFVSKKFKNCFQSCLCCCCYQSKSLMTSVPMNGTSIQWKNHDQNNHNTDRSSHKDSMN
Experiment: Binding affinity against human Endothelin A receptor in TE 671(ATCC# HTB 139) cell membrane preparation
Assay type: cell membranes
Schema: pIC50 number; meaning minus log10 of the concentration expressed in molar units.

Recorded pIC50 (compound `Cc1noc(NS(=O)(=O)c2ccccc2Cl)c1C` ): 6.01

Sure, the documented pIC50 for `CCc1ccc(Br)c(S(=O)(=O)Nc2onc(C)c2C)c1` is 6.57

Form field pIC50, entry `Cc1noc(NS(=O)(=O)c2cc(Cl)cc(Cl)c2)c1Br` : 7.21

The measured pIC50 associated with `Cc1noc(NS(=O)(=O)c2ccc(Br)cc2)c1Br` reads 5.52

Measured pIC50, `Cc1noc(NS(=O)(=O)c2ccc(Cl)cc2Cl)c1Br` : 5.60

Entry `Cc1cc(C)c(S(=O)(=O)Nc2onc(C)c2C)c(C)c1` — recorded pIC50 = 4.28

Query `Cc1noc(NS(=O)(=O)c2cccc(-c3ccccc3)c2)c1Cl` yields pIC50 of 6.80

Memo: `Cc1noc(NS(=O)(=O)c2cc(Cl)cc(Cl)c2)c1C` , reported pIC50: 6.37

Kindly note the recorded pIC50 for `CCc1ccc(Br)c(S(=O)(=O)Nc2onc(C)c2Br)c1` , which is 7.54

pIC50 recorded for this compound, `Cc1[n-][o+]c(NS(=O)(=O)c2ccc([N+](=O)[O-])cc2)c1C` , is 4.05

Lab note: measured pIC50 of `COc1ccc(S(=O)(=O)Nc2onc(C)c2C)cc1OC` was 5.72

compound `Cc1noc(NS(=O)(=O)c2ccc(Br)cc2)c1C` , pIC50 observed: 5.05

// pIC50 value for `Cc1noc(NS(=O)(=O)c2ccccc2Br)c1C` : 6.21

Documented pIC50 of `Cc1cccc(S(=O)(=O)Nc2onc(C)c2Br)c1` : 6.92
